Entry source: patent US8394832B2

In this section we review reported IC50 values for a set of compounds.
- Test system: IgE synthesis
- experiment_description: IgE ELISA of human PBMC treated with anti CD40 and IL-4 for three weeks
- Format: cell-based
- condition_info: 504 h, human PBMCs in presence of CD40+IL-4 for three weeks (FIGS. 11A and B), read-out: IC50 of inhibition of IgE synthesis
measured_attribute: IC50

compound	assayed_target	measured_attribute	measured
Nc1cccc2c1CN(C1CCC(=O)NC1=O)C2=O (centres unmarked)	IgE synthesis	IC50	100 to 300 nM
Nc1cccc2c1C(=O)N(C1CCC(=O)NC1=O)C2=O (centres unmarked)	IgE synthesis	IC50	100 to 300 nM
